Reference source for all entries: PubChem BioAssay

Form field: composite z-score (one value per entry).
Target: Fibroblast growth factor 2 (Homo sapiens) (UniProt P09038)
Sequence (P09038 whole entry, looked up): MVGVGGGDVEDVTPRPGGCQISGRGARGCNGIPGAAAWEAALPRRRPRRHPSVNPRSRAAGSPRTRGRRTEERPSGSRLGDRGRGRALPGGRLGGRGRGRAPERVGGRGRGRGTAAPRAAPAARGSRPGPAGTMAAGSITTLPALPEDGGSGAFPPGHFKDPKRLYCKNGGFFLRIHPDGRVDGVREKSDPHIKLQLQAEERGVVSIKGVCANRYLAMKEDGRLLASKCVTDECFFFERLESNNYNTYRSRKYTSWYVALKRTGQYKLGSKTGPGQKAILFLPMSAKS
Assay: FGF2 binders on small-molecule microarrays, primary screen, biochemical, small-molecule microarray, 635/667 nm fluorescence (AID 1133)
Conditions: small-molecule microarray binding, FGF2, fluorescence 635/667; higher = more signal

C=C(C)C1CN([C@H](CO)c2ccccc2)C(=O)/C1=C\c1ccccc1 (some centres not stated)	1.14
COC(=O)[C@@]1(Cc2ccc(F)cc2)[C@H]2c3cc(C(=O)N4CCCC4)n(C[C@H](O)CO)c3C[C@H]2CN1C(=O)c1ccccc1	-0.157
COC(=O)C(CC#Cc1ccc2c(c1)[C@]1(C(=O)N2)[C@H](C(=O)NC[C@H](O)c2ccccc2)[C@H]2C(=O)O[C@H](c3ccccc3)[C@H](c3ccccc3)N2[C@@H]1c1ccc(O)cc1)C(=O)OC	0.0859
O=C1c2ccccc2[C@@]2(Cc3ccccc3N(CC(F)(F)F)C2=O)[C@H](c2ccc(CO)cc2)N1Cc1ccccc1	1.4
COCCOC(=O)N1C(=O)[C@@]2(c3cc(C#CC4=CCCCC4)ccc31)[C@H](C(=O)N1CCCCCCC1)[C@H]1C(=O)O[C@H](c3ccccc3)[C@H](c3ccccc3)N1[C@@H]2c1ccccc1OCCO	0.679
COC(=O)[C@@]1(Cc2ccccc2)[C@H]2c3cc(C(=O)N(C)C)n(Cc4nc5ccccc5[nH]4)c3C[C@H]2CN1C(=O)c1ccccc1	-0.378
C[N+](C)(C)CCCC[C@@H]1NC(=O)[C@H]2C[C@@H](C(=O)NCCCCCN)[C@@H](c3ccc(O)cc3)N2C1=O	1.66
C=CC[C@]1(C(=O)NCCN2CCOCC2)N=C(c2ccc(OCCCO)cc2)O[C@H]1c1ccccc1	1.8

Please report composite z-score for the following molecule: `CC(C)(C)OC(=O)N1[C@@H](C=C(Br)Br)COC1(C)C` 0.65
